test: Antiproliferative activity against human primary epidermal keratinocytes assessed as inhibition of cell proliferation by fluorimetric assay; type: functional, cell-based; conditions: Keratinocyte
pIC50: −log10 of the molar value.
Measured Attribute: pIC50

> print(dat)
                              smiles.string  result
1  CC(C)Cn1c(=O)n(C)c(=O)c2c(SCCCO)c(Cc3cccc4ccccc34)sc21  < 6.00
